assay: Selectivity index, ratio of IC50 for mouse RAW264.7 cells to IC50 for antitrypanosomal activity against Trypanosoma cruzi […] Y (ATCC 50832) expressing GFP infected in mouse RAW264.7 cells assessed as inhibition of parasite replication; format: toxicity, cell-based; settings: read-out: Ratio IC50
ASSAY_READOUT: selectivity ratio

SMILES_INPUT | RESULT
C[C@H](C/C=C/C(C)(C)OO)[C@@H]1CC[C@]2(C)C3=C(CC[C@@]12C)[C@@]1(C)CC[C@H](O)C(C)(C)[C@@H]1CC3=O | > 10

The measured values listed here are drawn from ChEMBL document CHEMBL5584363.
